# Measured On: T1, Sfc1-DBD (C-terminal DNA-binding domain of Sfc1, residues 186-396), recombinant (Schizosaccharomyces pombe, UniProt O14229 186-396)
# T1 construct: Sfc1, Schizosaccharomyces pombe, residues 186-396 (winged-helix domain 186-283 and WHI domain 284-396); The crystal structure (4BJI) used selenomethionine-substituted protein; Purification details are in the Supplemental Methods; source: E. coli, purified (Ni-NTA, TEV, ion exchange, no gel filtration); not shown: His-tag, N-terminal, cleaved
# T1 sequence (looked up): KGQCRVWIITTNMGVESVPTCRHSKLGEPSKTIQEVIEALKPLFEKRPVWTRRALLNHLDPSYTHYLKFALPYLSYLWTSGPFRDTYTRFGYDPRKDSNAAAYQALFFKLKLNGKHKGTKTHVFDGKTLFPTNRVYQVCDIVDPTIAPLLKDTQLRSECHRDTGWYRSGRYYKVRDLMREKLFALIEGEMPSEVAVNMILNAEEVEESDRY
# Method Description: ITC; 25°C, VP-ITC; 50 mM HEPES pH 7.5, 150 mM NaCl, 2 mM β-mercaptoethanol; 10 µl injections of 200 µM peptide into 2 ml of 10 µM protein; data not shown
# Test Parameters: both partners purified
Measure Name: Kd

// fetch Kd given entry QEHEGFEDLEEIDDDYDDIFGD (Sfc1, Schizosaccharomyces pombe, the 22 C-terminal residues (435-456), pI 3.5; The methods call it Sfc1_(434-456); also called Sfc1_(434-456) peptide (methods); acidic tail peptide; source: synthetic peptide) [Sfc1_(435-456) synthetic peptide (22mer acidic Sfc1 tail peptide)]
3 µM

Source listed as paper PMC3799434.
